The measured values listed here are drawn from ChEMBL document CHEMBL4513216.

System: Plasmodium falciparum
Assay: Screen against P. falciparum Asexual Blood Stage (ABS), at 5uM
Assay type: functional, Dd2
Details: tested at 5 uM
The whole screen tested about 65,000 compounds, of which about 2,100 (3.2%) showed an effect of 50% or more. The median lay at about -52%. The list comes from a sample in which strong results are over-represented; it also holds close analogues and randomly drawn compounds.
quantity kind: INHIBITION (%)

In [3]: df
Out[3]:
                                     smiles      target_under_test  recorded_measurement
0  Cc1cc(CN2CCC(CNS(=O)(=O)c3ccccc3Cl)CC2)c(C)o1  Plasmodium falciparum                  53.6
1  CN1C(=O)CC[C@@H]2[C@H]1CCN2S(=O)(=O)c1cccs1  Plasmodium falciparum                  47.1
2  Cc1ccc(C)c(S(=O)(=O)NC(=O)c2ccc(C)[nH]c2=O)c1  Plasmodium falciparum                  -134
3            Cc1ncsc1C(=O)N1CCN(CCC(C)C)CC1  Plasmodium falciparum                 -64.6
4  CC(=O)N1CC[C@@]2(O)CCCC[C@H]2[C@@H]1c1ccc2c(c1)OCO2  Plasmodium falciparum                 -87.3

* * *

Test system: Plasmodium falciparum
Assay: Screen against P. falciparum Asexual Blood Stage (ABS), at 5uM
Assay type: functional, Dd2
Conditions: tested at 5 uM
In all, about 65,000 compounds went through this assay and about 2,100 (3.2%) showed an effect of 50% or more. The median lay at about -52%. What follows is part of a selection rich in strong results, with near analogues and random picks from the rest.
Measured INHIBITION accompanies every entry in the list below.
quantity kind: INHIBITION (%)

>>> df
                                    molecule  recorded_measurement
 0  COC(=O)[C@H]1C[C@@H](O)CCN1S(=O)(=O)c1cc(C)c(Cl)cc1C                  -190
 1  Cn1cc(CN2CCCCC2c2ccc(-c3cnn(C)c3)nc2)cn1 (centres undefined)                 -15.7
 2  Cc1cc(-c2cnc(N3CCNC(=O)C3)nc2-c2ccncc2)on1                 -43.2
 3  N#Cc1cccnc1OC1CCN(S(=O)(=O)c2ccc(Br)cc2)CC1                 -92.6
 4  Cc1cc(S(=O)(=O)N2CCC(N3CCC(O)C3)CC2)c(Cl)cc1Cl (centres undefined)                  69.3
 5  Cc1nc(C2(O)CCCNCC2)sc1CCOc1ccccc1Cl (centres undefined)                  54.5
 6  Cc1nc(C2(O)CCCNCC2)sc1CCOc1ccccc1 (centres undefined)                 -48.5
 7    CCN1CCN(S(=O)(=O)c2cc(C)c(Cl)cc2Cl)CC1                  64.3
 8  Cc1nc(C2(O)CCCNCC2)sc1CCOc1ccc(F)c(F)c1 (centres undefined)                  54.5
 9  OC(CNc1nc(C2CCCC2)nc2c1CCNCC2)C(F)(F)F (centres undefined)                  64.6
10  COc1ccc(OCc2sc(C3(O)CCCNCC3)nc2C)cc1 (centres undefined)                  14.8
11  Cn1cc(CN2CCCCC2c2ccc(-c3cccc(Cl)c3)nc2)cn1 (centres undefined)                  55.3
12           N#CCCCOc1cccnc1NC(=O)Cc1ccccc1F                  -150
13  CCN1CCCC(O)(c2nc(C)c(CCOc3ccccc3Cl)s2)CC1 (centres undefined)                    21
14  Cn1cc(CN2CCCCC2c2ccc(-c3cccc(F)c3)nc2)cn1 (centres undefined)                  2.27
15   CN(Cc1csc(-c2cnn(C)c2)n1)CC1CCN(CCO)CC1                 -6.54
16  Cc1nc(C2(O)CCCNCC2)sc1CCOc1ccc(Cl)cc1 (centres undefined)                    61
17  COc1ccc(OCCc2sc(C3(O)CCCNCC3)nc2C)cc1 (centres undefined)                  5.84
18  CSc1ccc(CN2CCCC3(CNC(=O)c4ccccc4O3)C2)cc1 (centres undefined)                 -85.7
19      Cc1cc(-c2cnc(NC3CC3)nc2-c2ccoc2C)on1                   -62
20  Cc1nc(COc2ccc(OC3CCCCNC3=O)cc2)oc1C (centres undefined)                  -151
21  CCN1CCCC(O)(c2nc(C)c(CCOc3ccc(F)cc3)s2)CC1 (centres undefined)                  23.9
22  Cc1nc2c(c(NCC(O)C(F)(F)F)n1)CCNCC2 (centres undefined)                  -121
23    Cc1cc(-c2cnc(NC3CCCC3)nc2-c2ccoc2C)on1                 -65.8

* * *

Tested on: Plasmodium falciparum
Assay: Screen against P. falciparum Asexual Blood Stage (ABS), at 5uM
Assay type: functional, Dd2
Details: tested at 5 uM
About 2,100 (3.2%) of roughly 65,000 compounds showed an effect of 50% or more. The median lay at about -52%. Shown is part of a subset that was picked to be rich in strong results.
Strictly below -70% in INHIBITION: Condition met. Otherwise: Condition not met.

                                    compound      target_under_test                cat
 0        Cc1cc(C(=O)N(C)Cc2cnn(C)c2C)n(C)n1  Plasmodium falciparum      Condition met
 1  COc1ccc(CN(C)[C@@H]2CN(C(=O)c3cncs3)C[C@H]2O)cc1  Plasmodium falciparum  Condition not met
 2   Cn1ccnc1CNC[C@H]1Cn2cc(-c3ccccc3)nc2CO1  Plasmodium falciparum  Condition not met
 3  NC(=O)C1CCN(C(=O)NCc2cccnc2OCC(F)(F)F)C1 (stereo unspecified)  Plasmodium falciparum      Condition met
 4  Cc1cnc(C(=O)N2CCC3(CCN3Cc3ccc(F)cc3)C2)cn1 (stereo unspecified)  Plasmodium falciparum  Condition not met
 5               O=C1CCCCN1Cc1cccc(OC(F)F)c1  Plasmodium falciparum      Condition met
 6  COc1ccc(-c2cn3c(n2)CO[C@@H](CNCc2nccn2C)C3)cc1  Plasmodium falciparum  Condition not met
 7  Cc1cccc(C(C)C)c1NC(=O)CN(C)C(C)c1nccs1 (stereo unspecified)  Plasmodium falciparum  Condition not met
 8  Cc1cccnc1CNC[C@H]1Cn2cc(-c3ccccc3)nc2CO1  Plasmodium falciparum  Condition not met
 9  CC(C)c1noc(CN2CCC(c3nc4cc(Cl)ccc4o3)CC2)n1  Plasmodium falciparum      Condition met
10  CSc1cccc(NC(=O)N2CCC3(CCC(=O)N(C4CC4)C3)CC2)c1  Plasmodium falciparum  Condition not met

* * *

System: Plasmodium falciparum
Test: Screen against P. falciparum Asexual Blood Stage (ABS), at 5uM
Format: functional, Dd2
Settings: tested at 5 uM
The whole screen tested about 65,000 compounds, of which about 2,100 (3.2%) showed an effect of 50% or more. The median lay at about -52%. The full list was thinned out, with strong results kept by preference.
Measured INHIBITION accompanies every entry in the list below.
quantity kind: INHIBITION

>>> df
                                    molecule  recorded_measurement
 0     COc1ccccc1-n1nc(CC(C)C)nc1Cc1nnc(N)s1                -59.7%
 1  Cc1cnn(C2CN(CC(O)c3ccccc3)C2)c1 (configuration not stated)                 40.9%
 2  Cc1cc(C)n(C2CN(CC(O)c3ccc(C(F)(F)F)cc3)C2)n1 (configuration not stated)                 65.4%
 3  O=C(Nc1ccccc1Cn1cccn1)N1CCCC(N2CCCC2)C1 (configuration not stated)                -31.7%
 4             COc1ccc(CNCC2CCN(CCO)CC2)cc1F                 58.2%
 5  Cc1nccc(-c2cccc(NCC(=O)N3CCCC(C)C3)c2)n1 (configuration not stated)                 -103%
 6  CN1CCN(Cc2cn3c(n2)CN(C(=O)N2CCOCC2)CC3)CC1                 -121%
 7        CN(C)C(=O)CCNC(=O)Nc1sc2ccccc2c1Cl                -22.3%
 8  O=C([C@H]1CCCO1)N1CCOC2(CCCN(c3ncccc3F)C2)C1 (some centres not stated)                -9.29%
 9  O=C(NCC1CC1)[C@@H]1CCO[C@@H]2CCN(Cc3ccc(F)cc3)C[C@H]21                 22.5%
10  Cc1cnn(CC2CCCN2Cc2nnc(C3CC3)n2C)c1 (configuration not stated)                 -100%
11  O=C(NCCCN1CCOCC1)c1nc(-c2ccc3cc[nH]c3c2)no1                 20.5%
12  Cc1cccc(CNC2CCCc3c2cnn3C)c1 (configuration not stated)                -37.4%
13  COc1nccc(N2CC[C@@H](N3CCC(O)CC3)[C@H](O)C2)c1C#N                -75.9%
14  O=C(NCC1CC1)[C@@H]1CCO[C@@H]2CCN(Cc3ccsc3)C[C@H]21                 50.9%
15   Cc1n[nH]cc1CNCC1(c2ccc3c(c2)OCO3)CCOCC1                -37.3%
16    CN(C)CCNC(=O)c1nc2c(s1)CCCN2C(=O)C1CC1                 25.4%
17  COc1nccc(N2CC[C@@H](N3CCCCCC3)[C@H](O)C2)c1C#N                 52.3%
18  CCNC(=O)NC(=O)C(C)N(C)CCOc1ccccc1C (configuration not stated)                -80.5%
19  CN(C)C(=O)CN1CCC2(COCc3cnc(-c4ccccc4)nc32)C1 (configuration not stated)                -24.6%
20  COc1ccc(C(O)CN2CC(n3cc(C)cn3)C2)cc1 (configuration not stated)                   22%
21  O=C(N1CCCCC1)N1CCN(CC(O)c2ccccc2)CC1 (configuration not stated)                -4.34%
22       CN(C)c1ccc(C(=O)N(CCO)CC2CC2)c(F)c1                -93.3%
23  COCC(=O)N1CCC2(COCc3cnc(N4CCOCC4)nc32)C1 (configuration not stated)                  -38%
24      Cn1cccc1CN1CCC2(CC1)CN(c1ncccn1)CCO2                -28.5%
25  COCc1cc(O)nc(C2CCCN(Cc3ccc(OC)cc3)C2)n1 (configuration not stated)                -29.3%
26  Cc1ccc(CNC2CCCc3c2cnn3Cc2ccccc2)s1 (configuration not stated)                 16.3%
27   CN(C)C(=O)CN1C(=O)CCC12CCN(Cc1cccs1)CC2                  -98%
28           CCn1nccc1CN(C)C(=O)Cn1nc(C)cc1C                -52.5%
29    O=C(c1ccc[nH]1)N1CCn2cc(Cn3cccn3)nc2C1                -68.4%
30  Cc1cc(C)n(C2CN(CC(O)c3ccc(F)cc3)C2)n1 (configuration not stated)                 62.8%
31  Cc1cc(C)n(C2CN(CC(O)COc3ccc(F)cc3)C2)n1 (configuration not stated)                -18.8%
32  CN1C(=O)CC(c2cnn(C)c2)C12CCN(C(=O)c1cscn1)CC2 (configuration not stated)                -21.4%
33  CC(CN1CCC(c2ccccc2)CC1)n1cnc2ccccc21 (configuration not stated)                 3.15%
34  Cc1nc(N2CCC3(CCOC3)C2)c2cc[nH]c2n1 (configuration not stated)                -21.2%
35         CCc1nccn1CC(=O)Nc1cccc(N2CCCC2)c1                -50.9%
36  COCCn1c(-c2cccc(OC)c2)cnc1NC(=O)NCCC(C)C                -63.4%
37  COc1cc(CCC(=O)N2CCC(c3cc4ncccc4[nH]3)CC2)on1               -0.239%
38  COc1ccc(OC)c(CN2CCC(c3cc(O)nc(C)n3)C2)c1 (configuration not stated)                -1.68%
39        CC1(C)CNC(=O)CN(C(=O)COc2ccccc2)C1                -24.2%
40  O=C(C1CCC1)N1C[C@@H]2CN(Cc3ccncc3)C(=O)[C@@H]2C1                -74.3%
41          Cc1ncnc2c1CCN(S(=O)(=O)C1CC1)CC2                -47.1%
42  Cc1nnc(N2CC[C@H]3C[C@H](C(=O)N4CCOCC4)O[C@H]3C2)s1                -42.1%
43  c1csc(CN2CCO[C@@H]3CN(C4CCOCC4)C[C@@H]3C2)c1                -93.2%
44  CN(C)c1ccc(C(=O)N2CCC(c3cc4ncccc4[nH]3)CC2)cc1                 55.6%
45  CN(C)CC(C)(O)CNC(=O)Nc1sc2ccccc2c1Cl (configuration not stated)                 63.2%
46  COc1nccc(N2CC[C@@H](N3CCN(C)CC3)[C@H](O)C2)c1C#N                -50.4%
